- system-tested: human DPP-4 enzyme (Homo sapiens, UniProt P27487)
- Construct: purchased
- Sequence (P27487 whole entry): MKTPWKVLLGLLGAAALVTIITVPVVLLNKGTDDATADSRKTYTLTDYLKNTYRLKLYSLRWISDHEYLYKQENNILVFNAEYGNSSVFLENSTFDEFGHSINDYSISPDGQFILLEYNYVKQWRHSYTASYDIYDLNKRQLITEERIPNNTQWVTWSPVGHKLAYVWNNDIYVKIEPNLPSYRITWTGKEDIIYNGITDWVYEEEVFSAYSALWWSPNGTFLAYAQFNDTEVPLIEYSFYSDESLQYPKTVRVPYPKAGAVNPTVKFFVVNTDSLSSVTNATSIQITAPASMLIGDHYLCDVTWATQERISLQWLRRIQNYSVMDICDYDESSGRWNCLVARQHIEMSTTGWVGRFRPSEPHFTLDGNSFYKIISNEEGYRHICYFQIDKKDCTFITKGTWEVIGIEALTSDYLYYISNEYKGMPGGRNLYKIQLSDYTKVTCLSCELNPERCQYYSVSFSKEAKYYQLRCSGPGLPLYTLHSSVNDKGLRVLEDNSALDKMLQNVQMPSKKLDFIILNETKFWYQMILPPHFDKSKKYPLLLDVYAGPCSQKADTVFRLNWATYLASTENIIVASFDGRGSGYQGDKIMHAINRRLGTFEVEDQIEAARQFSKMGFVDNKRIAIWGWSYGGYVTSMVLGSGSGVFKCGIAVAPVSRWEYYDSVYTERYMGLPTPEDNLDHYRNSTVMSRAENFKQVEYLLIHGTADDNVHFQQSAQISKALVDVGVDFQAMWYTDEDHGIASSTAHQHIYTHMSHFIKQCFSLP
- test-description: DPP-4 activity bioassay
- Assay type: biochemical
- assay-setup: 500 µM; read-out: DPP4 (inhibition)
Label 1 when inhibition at 500 µM >= 80%; otherwise -1.

> print(dat)
                                   compound  label
1  CC(C)(C=C1SC(=O)N(C(=O)CN2CCOCC2)C1=O)C1CC(=O)N(Cc2ccccc2)C1=O (centres unmarked) [10d]      1
2  CC(C)(/C=C1\SC(=O)N(C(=O)CN2CCOCC2)C1=O)[C@@H]1CC(=O)NC1=O [10a]      1
3  CC(C)(/C=C1\SC(=O)N(C(=O)CN2CCOCC2)C1=O)[C@@H]1CC(=O)N(c2ccccc2)C1=O [10c]     -1
4  COc1ccc(N2C(=O)C[C@@H](C(C)(C)/C=C3\SC(=O)N(C(=O)CN4CCOCC4)C3=O)C2=O)cc1 [10e]      1

Source of measurements: paper PMC9918900
